# Target Or System: Tyrosine-protein phosphatase non-receptor type 5 (Homo sapiens)
# Sequence (P54829 whole entry): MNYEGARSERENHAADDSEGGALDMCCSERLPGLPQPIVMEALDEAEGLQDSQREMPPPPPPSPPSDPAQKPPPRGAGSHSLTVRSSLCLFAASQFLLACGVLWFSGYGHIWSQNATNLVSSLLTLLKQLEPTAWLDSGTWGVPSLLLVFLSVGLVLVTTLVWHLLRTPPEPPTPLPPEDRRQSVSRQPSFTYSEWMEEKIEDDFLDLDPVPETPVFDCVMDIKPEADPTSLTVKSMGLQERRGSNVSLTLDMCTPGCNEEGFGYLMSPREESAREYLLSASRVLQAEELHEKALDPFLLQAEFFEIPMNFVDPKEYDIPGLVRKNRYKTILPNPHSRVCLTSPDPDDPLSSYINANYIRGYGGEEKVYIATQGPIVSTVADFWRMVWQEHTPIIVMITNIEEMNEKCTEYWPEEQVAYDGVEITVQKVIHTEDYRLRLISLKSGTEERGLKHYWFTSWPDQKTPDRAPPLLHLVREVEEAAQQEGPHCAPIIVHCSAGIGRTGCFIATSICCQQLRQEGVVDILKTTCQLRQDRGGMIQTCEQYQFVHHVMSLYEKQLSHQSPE
# Assay Details: STEP phosphatase inhibitor potency, dose response, orthogonal assay for STEP inhibitor project, biochemical, colorimetric absorbance (AID 624207)
# Reported Conditions: inactive by the depositor's call
Measurement Name: IC50 (µM)

CCOc1ccc(/C=N/NC(=O)c2cc3c(OC)cccc3[nH]2)cc1    28.5
S=C(NCCc1ccccc1)Nc1c(Cl)cccc1Cl    41.2
Cn1c(=O)[nH]c(=O)c2c1nc(SCCN1CCCCC1)n2CCCc1ccccc1    60.5
CC(=NNC(=O)c1ccccc1O)c1ccc(NC(=O)Cc2ccccc2)cc1    29.4
CCOc1ccc(C(=S)N2CCN(C)CC2)cc1    44.3

[a] COc1cccc(-c2cc(C(=O)Nc3nc4ccccc4s3)c3ccccc3n2)c1
[b] COc1ccc(NC(=S)N2CCC(N(C)CC3CCCO3)CC2)cc1Cl (stereo unspecified)
Form field 'greater IC50' accepts a or b ; which applies? Answer format: the label of the selected item.
a
